assay: qHTS RealTime-Glo MT Cell Viability Assay in HEK293 cells - 8 hour (AID 1224887); details: RealTime-Glo luminescence; series mostly up to 76.8 µM; also: nearly all actives have a fitted effect of over 50% in size
Records with an inconclusive call do not appear. Activity calls are given as the source filed them. Calls follow the shape of the dose curve; as a rule, active = well fitted cell-killing curve with a large enough effect in the repeat runs; inconclusive = weak or mixed curves, or effect the other way; inactive = flat fitted curve, though single readings scatter.
Assign a class; possible classes are Y (active), N (inactive)

Field: example entries. Status: answers known.
>  <COMPOUND>
CCc1cccc(C)c1

>  <CLASSIFICATION>
N

$$$$
>  <COMPOUND>
CC(CN(C)C)CN1c2ccccc2CCc2ccccc21 (stereo not drawn)

>  <CLASSIFICATION>
N

$$$$
>  <COMPOUND>
CC1=CP(=O)(c2ccccc2)CC1 (stereo not drawn)

>  <CLASSIFICATION>
N

$$$$
>  <COMPOUND>
Cc1cccc(C)c1NC(=O)CN1CCN(CCCC(c2ccc(F)cc2)c2ccc(F)cc2)CC1

>  <CLASSIFICATION>
Y

$$$$
>  <COMPOUND>
CC1CCCCN1CCCOC(=O)c1ccc(OC2CCCCC2)cc1 (stereo not drawn)

>  <CLASSIFICATION>
Y

$$$$
>  <COMPOUND>
CCCC(C)CCC(C)=O (stereo not drawn)

>  <CLASSIFICATION>
N

$$$$

(Q) For CCCCCCCOC(=O)c1ccccc1C(=O)OCCCCCCC , what call appears in the results of this test?
(A) N

(Q) Dear colleague, could you share the recorded outcome for CC(C)(c1cc(Br)c(O)c(Br)c1)c1cc(Br)c(O)c(Br)c1 when you have a moment?
(A) N
